Taken from paper PMC8000448.

Below, each entry is listed alongside its reported IC50.
# system name: CYP2E1 (Homo sapiens, UniProt P05181)
# Construct: pooled HLMs (0.25 mg/mL); tissue XenoTech H2630; host or cells: pooled human liver microsomes, mixed gender
# Sequence (P05181 whole entry): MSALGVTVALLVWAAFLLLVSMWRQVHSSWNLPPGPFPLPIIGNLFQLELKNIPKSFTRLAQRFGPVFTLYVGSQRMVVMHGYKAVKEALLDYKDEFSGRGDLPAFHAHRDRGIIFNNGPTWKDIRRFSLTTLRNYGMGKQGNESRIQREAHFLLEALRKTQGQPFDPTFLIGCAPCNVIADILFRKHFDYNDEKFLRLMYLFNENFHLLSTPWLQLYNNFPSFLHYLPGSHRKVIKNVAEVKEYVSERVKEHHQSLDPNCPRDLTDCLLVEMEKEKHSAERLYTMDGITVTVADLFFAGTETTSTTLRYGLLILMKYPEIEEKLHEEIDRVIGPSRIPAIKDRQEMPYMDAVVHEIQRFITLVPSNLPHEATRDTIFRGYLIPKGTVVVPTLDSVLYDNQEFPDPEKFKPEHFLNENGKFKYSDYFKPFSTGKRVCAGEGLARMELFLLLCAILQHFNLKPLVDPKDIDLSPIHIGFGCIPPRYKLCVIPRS
# protocol description: CYP2E1 inhibition in HLMs (chlorzoxazone)
# Type: in vitro ADME
# condition notes: reversible inhibition, read-out: IC50 RI, CYP2E1
# Protocol: Lignans were first dissolved in methanol. […] All microsomal incubations were performed in triplicate.

COc1cc2c(c(OC)c1OC)-c1c(cc3c(c1OC)OCO3)C[C@H](C)[C@H](C)C2 = > 50 µM

### Prompt // lookup IC50 | system=CYP2E1 (Homo sapiens, UniProt P05181) | key= `COc1c2c(cc3c1-c1c(cc4c(c1OC)OCO4)C[C@H](C)[C@H](C)C3)OCO2`
### Response > 50 µM

### Prompt // lookup IC50 | system=CYP2E1 (Homo sapiens, UniProt P05181) | key= `COc1cc2c(c(OC)c1OC)-c1c(cc(OC)c(OC)c1OC)C[C@](C)(O)[C@@H](C)C2`
### Response 4.2 µM

### Prompt // lookup IC50 | system=CYP2E1 (Homo sapiens, UniProt P05181) | key= `COc1cc2c(c(OC)c1OC)-c1c(cc3c(c1OC)OCO3)C[C@H](C)[C@](C)(O)[C@H]2OC(=O)c1ccccc1`
### Response > 50 µM
